- Test system: LOX IMVI melanoma
- procedure text: NCI tumour cell line growth inhibition, 48 h
quantity kind: TGI (µM)

# molecule, system name, unit info, value relation sign, data value
measured = [
    ("CO[C@@]12[C@@H]3NC3CN1C1=C(C(=O)C(N)=C(C)C1=O)[C@@H]2COC(N)=O (some centres not stated)", "LOX IMVI melanoma", "µM", "=", 2.06),
    ("CCN(CC)c1ccc2cc(-c3nc4ccccc4c(=O)[nH]3)c(=N)oc2c1", "LOX IMVI melanoma", "µM", ">", 100),
    ("O=C(Nc1cccc(NC(=O)c2cc(=O)c3ccccc3o2)n1)c1cc(=O)c2ccccc2o1", "LOX IMVI melanoma", "µM", ">", 100),
    ("CCCNc1ncnc2[nH]ncc12", "LOX IMVI melanoma", "µM", ">", 100),
    ("COc1ccc(-c2cc(C(O)C3CCCCN3)c3ccccc3n2)cc1 (configuration not stated)", "LOX IMVI melanoma", "µM", "=", 16),
    ("O=[N+]([O-])c1ccc(C(Nc2ccccc2)c2ccc3cccnc3c2O)cc1 (configuration not stated)", "LOX IMVI melanoma", "µM", "=", 61),
    ("Nc1nc(Cl)cc(NCC2(O)CCCC2)n1", "LOX IMVI melanoma", "µM", ">", 100),
    ("CC(C)C1(O)C(=O)N(c2c(F)c(F)c(F)c(F)c2F)C(=S)N1CCSc1ccccc1 (configuration not stated)", "LOX IMVI melanoma", "µM", "=", 30.1),
    ("Oc1ccc(Cl)cc1Cc1cc(Cl)ccc1O", "LOX IMVI melanoma", "µM", "=", 8.51),
    ("N/C(=N\\Nc1ccc(S(N)(=O)=O)cc1)c1cnccn1", "LOX IMVI melanoma", "µM", ">", 100),
    ("O=c1[nH]c2ccccc2n1-c1n[nH]c2ccccc12", "LOX IMVI melanoma", "µM", "=", 52.5),
    ("CC(C)(C)OC(=O)n1cc(C2CN(O)C(=O)C23CCC(=O)N3Cc2ccccc2)c2ccccc21 (configuration not stated)", "LOX IMVI melanoma", "µM", "=", 55.3),
    ("OCNCCNc1nc2ccccc2c2[nH]c3ccccc3c12", "LOX IMVI melanoma", "µM", "=", 1.39),
    ("CC1OC(OC2CCC3(C=O)C4CCC5(C)C(C6=CC(=O)OC6)CCC5(O)C4CCC3(O)C2)C(O)C(O)C1O (configuration not stated)", "LOX IMVI melanoma", "µM", "=", "6.73e-05"),
    ("Cc1nc(-c2cc3cc(Cl)ccc3oc2=O)cc2c1c(=O)oc1ccc(Cl)cc12", "LOX IMVI melanoma", "µM", ">", 100),
    ("CCOP(=O)(OCC)C(C)(CC)NC(=O)C(C(F)(F)F)C(F)(F)F (configuration not stated)", "LOX IMVI melanoma", "µM", ">", 100),
    ("NCCC1CN(C(=O)OCc2ccccc2)c2ccccc21 (configuration not stated)", "LOX IMVI melanoma", "µM", "=", 17.1),
    ("CCOC(=O)c1cn(C)c(=S)n2c1nc1ccccc12", "LOX IMVI melanoma", "µM", ">", 100),
    ("O=C(Nc1ccccc1C(=O)N/N=C(\\c1ccccc1)c1ccccn1)c1ccc(F)cc1", "LOX IMVI melanoma", "µM", ">", 100),
    ("CCC(CC(C)C)Nc1ccc(NC(CC)CC(C)C)cc1 (configuration not stated)", "LOX IMVI melanoma", "µM", "=", 35.1),
    ("O=C(CC1Sc2ccccc2NC1=O)Nc1ccc(Cl)cc1 (configuration not stated)", "LOX IMVI melanoma", "µM", ">", 100),
    ("COc1cc2cc3c4c(cc(OC)c(OC)c4c2cc1OC)CCN3C(=O)CCC(=O)NCCCN(C)C", "LOX IMVI melanoma", "µM", "=", 27.3),
]

----------
- Test system: SK-OV-3 ovarian
- procedure text: NCI tumour cell line growth inhibition, 48 h
Documented TGI across a set of compounds

# compound, TGI
measured = [
    ("CCOC(=O)C(=O)C(=O)NN(C)C1=NCCN1", "> 100 µM"),
    ("Cc1csc(NC(=NCCN2CCOCC2)Nc2nc(C)cs2)n1", "> 100 µM"),
    ("Cc1c(C(=O)CSc2nc3ccccc3[nH]2)c(=O)n(-c2ccccc2)n1C", "> 100 µM"),
    ("COc1ccc2nc3n(c2c1)CCc1cc(OC)c(OC)cc1-3", "> 100 µM"),
    ("CN1CCN(c2nc(-c3ccncc3)nc3sc4c(c23)CCCCCC4)CC1", "24.6 µM"),
    ("COC(=O)/C(=N/NC(N)=O)C(C(=O)OC)C(=O)C(=O)Nc1ccc(Cl)cc1 (stereo not given)", "> 100 µM"),
    ("CC(=O)/C(=C\\c1ccc(Cl)c(Cl)c1)C(=O)C(C)CN(C)C (stereo not given)", "37.1 µM"),
    ("CCOC(=O)C1(C(F)(F)F)N=C(CC)OC(N2CCOCC2)=N1 (stereo not given)", "> 100 µM"),
    ("C[C@@H]1C[C@]2(C[C@@H](C)C3[C@@H](CC4(C)[C@@H]5CCC6C(C)(C)OC(=O)C=C[C@]67C[C@@]5(CC[C@]34C)OO7)O2)OC1=O (stereo not given in full)", "> 100 µM"),
    ("N/C(=N\\Nc1ccc(S(N)(=O)=O)cc1)c1cnccn1", "> 100 µM"),
]

----------
- Tested on: NCI-H23 lung
Outcome codes: active, inactive

# molecular string, qualitative label
rows = [
    ("O=c1[nH]c2ccccc2n1-c1n[nH]c2ccccc12", "inactive"),
    ("CC(=O)Oc1ccc(/C=N/NC(N)=S)nc1", "inactive"),
    ("Oc1ccc(Cl)cc1Cc1cc(Cl)ccc1O", "inactive"),
    ("CCOc1cc(-c2ccc[nH]2)[nH]c1/C=C1\\N=C(C)C(C(=O)OC)=C1C", "active"),
    ("COc1cc([N+](=O)[O-])c2ncccc2c1[N+](=O)[O-]", "inactive"),
    ("O=C(Cc1csc2nc(-c3ccc(Br)cc3)cn12)N/N=C/c1ccc(O)cc1", "inactive"),
    ("Oc1[nH]c2cc(Cl)ccc2c1/C=c1/ccc2c(c1)N=C(c1cc(F)cc(F)c1)N=2", "inactive"),
    ("C=[CH][Sn]([CH]=C)([O]c1cccc2cccnc12)[O]c1cccc2cccnc12", "inactive"),
    ("OCNCCNc1nc2ccccc2c2[nH]c3ccccc3c12", "inactive"),
]

----------
- Tested on: SF-295 CNS
- procedure text: NCI tumour cell line growth inhibition, 48 h
// reported TGI per item
quantity kind: TGI (µM)

# compound, system name, unit info, value relation sign, data value
measured = [
    ("Cc1ccc(-c2n[nH]c(=O)n2/N=C\\c2ccccc2)cc1", "SF-295 CNS", "µM", "=", 69),
    ("CN1C(=O)C(O)CC1c1cccc(C(F)(F)F)c1 (configuration not stated)", "SF-295 CNS", "µM", ">", 100),
    ("C=C1C(=O)O[C@H]2[C@H]3O[C@@H](C[C@@H]12)[C@](C)(O)CC[C@@H]1O[C@@]1(C)CCC[C@H]3C", "SF-295 CNS", "µM", ">", 100),
    ("Cc1cc2cc3c(cc2c(-c2ccc(N)cc2)n1)OCO3", "SF-295 CNS", "µM", ">", 100),
    ("OCNCCNc1nc2ccccc2c2[nH]c3ccccc3c12", "SF-295 CNS", "µM", "=", 5.97),
    ("COc1ccc(CCN2CCc3c(C)c(C#N)c4nc5ccccc5n4c32)cc1OC", "SF-295 CNS", "µM", ">", 100),
    ("O=C(Cc1csc2nc(-c3ccc(Br)cc3)cn12)N/N=C/c1ccc(O)cc1", "SF-295 CNS", "µM", "=", 41.7),
]

----------
- Test system: SK-MEL-28 melanoma
- procedure text: NCI tumour cell line growth inhibition, 48 h
Readings of TGI for the listed compounds

# compound, TGI
data = [
    ("O=C1C=CC(=O)c2c(Cl)ccc(O)c21", "33 µM"),
    ("Cc1ccc(C(C)C)cc1NC(=O)Nc1ccc([N+](=O)[O-])cc1", "10.4 µM"),
    ("CO[C@]1(CN2CCN3CCCC[C@@H]3C2)/C=C/C[C@H](C)[C@@H](C)S(=O)(=O)NC(=O)c2ccc3c(c2)N(C[C@@H]2CC[C@H]21)C[C@@]1(CCCc2cc(Cl)ccc21)CO3", "3.44 µM"),
    ("C(/Cc1ccc2c(c1)OCO2)=N\\NC1=NCCCN1", "> 100 µM"),
    ("CNC(=O)CN(CC(N)=O)C(N)=O", "> 100 µM"),
    ("Nc1nc(Cl)cc(NCC2(O)CCCC2)n1", "> 100 µM"),
    ("Cc1[nH]c(=O)[nH]c(=S)c1C(=O)Nc1cccc2cc3ccccc3cc12", "> 100 µM"),
    ("COC(=O)CCCC(=O)NC1=C(NCc2ccccc2)C(=O)c2ccccc2C1=O", "> 100 µM"),
    ("N#CC1C=Cc2ccccc2N1C(=O)Oc1ccccc1 (configuration not stated)", "> 100 µM"),
    ("CCN(CC)c1ccc2cc(-c3nc4ccccc4c(=O)[nH]3)c(=N)oc2c1", "> 100 µM"),
    ("CCSC(SCC)=C1C(=O)N(c2ccccc2)N=C1C", "26.5 µM"),
    ("C=CC1CN2CCC1CC2C(O)c1ccnc2ccccc12 (configuration not stated)", "> 100 µM"),
    ("N#Cc1nc(C#N)n(C(=O)c2ccccc2)c1NC(=O)c1ccccc1", "> 100 µM"),
    ("C[N+](C)(C)CC1CCCC(C[N+](C)(C)C)C1O (configuration not stated)", "> 100 µM"),
    ("CO[C@@]12[C@@H]3NC3CN1C1=C(C(=O)C(N)=C(C)C1=O)[C@@H]2COC(N)=O (some centres not stated)", "5.47 µM"),
    ("C/C(Nc1ccc(Cl)cc1Cl)=C1/CCOC1=O", "> 100 µM"),
    ("COc1ccc(-c2cc(C(O)C3CCCCN3)c3ccccc3n2)cc1 (configuration not stated)", "5.49 µM"),
    ("COC(=O)/C(=N/NC(N)=O)C(C(=O)OC)C(=O)C(=O)Nc1ccc(Cl)cc1 (configuration not stated)", "> 100 µM"),
    ("CN1C(=O)C(O)CC1c1cccc(C(F)(F)F)c1 (configuration not stated)", "> 100 µM"),
    ("Cc1c(C(=O)CSc2nc3ccccc3[nH]2)c(=O)n(-c2ccccc2)n1C", "> 100 µM"),
    ("NS(=O)(=O)c1ccc(NNc2c3ccccc3nc3c(C(=O)Nc4ccc(S(=O)(=O)Nc5ncccn5)cc4)cccc23)cc1", "> 25 µM"),
    ("C/C=C1\\C(=O)OC2CCN3CCC(COC(=O)C(C)(O)C(C)C1O)C23 (configuration not stated)", "> 100 µM"),
]
